# target-desc: caspase-8 (Homo sapiens, UniProt Q14790)
# Construct: p10 and p20 subunits (Thornberry, N. A. et al, Nature, 1992, 356, 768) were expressed in E. coli; made in house; host or cells: E. coli
# Sequence (Q14790 217-374 limits assumed, species assumed): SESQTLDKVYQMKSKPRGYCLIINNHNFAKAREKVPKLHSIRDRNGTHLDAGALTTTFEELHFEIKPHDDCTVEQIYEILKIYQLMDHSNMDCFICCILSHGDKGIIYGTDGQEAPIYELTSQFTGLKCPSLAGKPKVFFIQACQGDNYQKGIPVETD
# Sequence (Q14790 385-479 limits assumed, species assumed): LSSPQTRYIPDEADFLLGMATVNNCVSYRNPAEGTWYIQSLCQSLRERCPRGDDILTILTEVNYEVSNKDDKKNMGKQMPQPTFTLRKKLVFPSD
# assay-details: Caspase-8 inhibitory effect (fluorescent substrate AcDEVD-AFC)
# Type: biochemical
# run-conditions: pH 7.5; 25° C., 50 μM AcDEVD-AFC, 2.1 nM caspase-8; read-out: Caspase-8 Kobs/[I] (converted)
# Procedure: Caspase-1 and caspase-8 known as cysteine proteases in the form of α2β2 were expressed, purified, and activated by modifying a method known in Thornberry, N. A. et al, Nature, 1992, 356, 768. Thornberry, N. A. Methods in Enzymology, 1994, 244, 615. […] The inhibitory constants Ki and Kobs of the inhibitors were determined by measuring the reaction velocity with the time lapse using a fluorescent spectrometer and by obtaining the initial rate constant. […]
Label yes when kinact/KI is at or above 3000 M⁻¹ s⁻¹; otherwise label no.

(Q) Reported kinact/KI at or above 3000 M⁻¹ s⁻¹? CCC1(C(=O)N[C@@H](CC(=O)O)C(=O)COc2c(F)c(F)cc(F)c2F)CC(c2cccc3ccccc23)=NO1 (stereo partly drawn)
(A) yes

(Q) Follow-up item: CCC1(C(=O)NC(CC(=O)O)C(=O)CF)CC(c2c(C)c3ccccc3n2C)=NO1 (stereo not drawn)
(A) no

(Q) Follow-up item: CCC1(C(=O)NC(CC(=O)O)C(=O)CF)CC(c2cc(C3CCCCC3)ccn2)=NO1 (stereo not drawn)
(A) yes

(Q) Follow-up item: CC(C)[C@@]1(C(=O)N[C@@H](CC(=O)O)C(=O)COc2ccccn2)CC(c2nccc3ccccc23)=NO1
(A) no

(Q) Follow-up item: CCC1(C(=O)N[C@@H](CC(=O)O)C(=O)COc2c(F)c(F)cc(F)c2F)CC(c2ccccc2)=NO1 (stereo partly drawn)
(A) no

(Q) Follow-up item: CC(C)[C@@]1(C(=O)NC(CC(=O)O)C(=O)CF)CC(c2ccc3ccccc3n2)=NO1 (stereo partly drawn)
(A) yes

(Q) Follow-up item: CC(C)C1(C(=O)NC(CC(=O)O)C(=O)CF)CC(c2cc3cc(Cl)ccc3n2C)=NO1 (stereo not drawn)
(A) yes

(Q) Follow-up item: CCC1(C(=O)NC(CC(=O)O)C(=O)CF)CC(c2cc(C(C)(C)C)ccn2)=NO1 (stereo not drawn)
(A) yes

(Q) Follow-up item: CCC1(C(=O)N[C@@H](CC(=O)O)C(=O)COc2c(F)c(F)cc(F)c2F)CC(COc2cccc3ccccc23)=NO1 (stereo partly drawn)
(A) no

(Q) Follow-up item: CC(C)[C@@]1(C(=O)NC(CC(=O)O)C(=O)CF)CC(c2cc(C3CCCC3)ccn2)=NO1 (stereo partly drawn)
(A) yes

(Q) Follow-up item: CCC1(C(=O)NC(CC(=O)O)C(=O)CF)CC(c2cnc3ccccc3c2)=NO1 (stereo not drawn)
(A) yes

(Q) Follow-up item: CC(C)[C@@]1(C(=O)N[C@@H](CC(=O)O)C(=O)COc2cc(C(F)(F)F)nn2-c2ccccc2)CC(c2nccc3ccccc23)=NO1
(A) no

(Q) Follow-up item: CC(C)[C@@]1(C(=O)NC(CC(=O)O)C(=O)CF)CC(c2nccc3ccccc23)=NO1 (stereo partly drawn)
(A) yes

(Q) Follow-up item: CCC1(C(=O)NC(CC(=O)O)C(=O)CF)CC(c2ccccn2)=NO1 (stereo not drawn)
(A) no

(Q) Follow-up item: CCC1(C(=O)N[C@@H](CC(=O)O)C(=O)COc2c(F)c(F)cc(F)c2F)CC(c2c(C)c3ccccc3n2C)=NO1 (stereo partly drawn)
(A) no

(Q) Follow-up item: CC[C@@]1(C(=O)NC(CC(=O)O)C(=O)CF)CC(c2ccc3ccccc3n2)=NO1 (stereo partly drawn)
(A) yes

(Q) Follow-up item: CC(C)c1ccccc1C1=NO[C@@](C(=O)NC(CC(=O)O)C(=O)CF)(C(C)C)C1 (stereo partly drawn)
(A) yes

(Q) Follow-up item: CCC1(C(=O)N[C@@H](CC(=O)O)C(=O)COC(=O)c2c(Cl)cccc2Cl)CC(CCc2cccc3ccccc23)=NO1 (stereo partly drawn)
(A) no

(Q) Follow-up item: CCC1(C(=O)NC(CC(=O)O)C(=O)CF)CC(c2cc(C3CCCC3)ccn2)=NO1 (stereo not drawn)
(A) yes

(Q) Follow-up item: CCC1(C(=O)N[C@@H](CC(=O)O)C(=O)COc2c(F)c(F)cc(F)c2F)CC(Cc2cccc3ccccc23)=NO1 (stereo partly drawn)
(A) yes

(Q) Follow-up item: CC[C@@]1(C(=O)NC(CC(=O)O)C(=O)CF)CC(c2cccc3ccccc23)=NO1 (stereo partly drawn)
(A) yes

(Q) Follow-up item: CC(C)C1(C(=O)NC(CC(=O)O)C(=O)CF)CC(c2cccc(-c3ccccc3)c2)=NO1 (stereo not drawn)
(A) yes

====

Give measured pIC50 for each item. Keep answers brief.
# Test system: Jurkat cell (ATCC TIB-152)
# assay-details: Jurkat cell apoptosis by Fas antibody, WST-1 method
# Format: cell-based
# run-conditions: Homo sapiens, Jurkat, apoptosis using Fas antibody, WST-1
A value of pIC50 is the negative decimal logarithm of a concentration given in moles per litre.

(Q) Requested read-out: pIC50. Entry: CC(C)c1ccccc1C1=NO[C@@](C(=O)NC(CC(=O)O)C(=O)CF)(C(C)C)C1 (stereo partly shown)
(A) 6.17

(Q) Follow-up item: CCC[C@@]1(C(=O)NC(CC(=O)O)C(=O)CF)CC(c2nccc3ccccc23)=NO1 (stereo partly shown)
(A) 6.80

(Q) Follow-up item: CC(C)C1(C(=O)NC(CC(=O)O)C(=O)CF)CC(c2cccc(-c3ccccc3)c2)=NO1 (stereo not shown)
(A) 5.61

(Q) Follow-up item: CCC1(C(=O)NC(CC(=O)O)C(=O)CF)CC(c2ccccn2)=NO1 (stereo not shown)
(A) 5.64
